CAA IC50: recorded values
Biological target: T1, recombinant human periostin (human, UniProt Q15063 22-836)
T1 sequence: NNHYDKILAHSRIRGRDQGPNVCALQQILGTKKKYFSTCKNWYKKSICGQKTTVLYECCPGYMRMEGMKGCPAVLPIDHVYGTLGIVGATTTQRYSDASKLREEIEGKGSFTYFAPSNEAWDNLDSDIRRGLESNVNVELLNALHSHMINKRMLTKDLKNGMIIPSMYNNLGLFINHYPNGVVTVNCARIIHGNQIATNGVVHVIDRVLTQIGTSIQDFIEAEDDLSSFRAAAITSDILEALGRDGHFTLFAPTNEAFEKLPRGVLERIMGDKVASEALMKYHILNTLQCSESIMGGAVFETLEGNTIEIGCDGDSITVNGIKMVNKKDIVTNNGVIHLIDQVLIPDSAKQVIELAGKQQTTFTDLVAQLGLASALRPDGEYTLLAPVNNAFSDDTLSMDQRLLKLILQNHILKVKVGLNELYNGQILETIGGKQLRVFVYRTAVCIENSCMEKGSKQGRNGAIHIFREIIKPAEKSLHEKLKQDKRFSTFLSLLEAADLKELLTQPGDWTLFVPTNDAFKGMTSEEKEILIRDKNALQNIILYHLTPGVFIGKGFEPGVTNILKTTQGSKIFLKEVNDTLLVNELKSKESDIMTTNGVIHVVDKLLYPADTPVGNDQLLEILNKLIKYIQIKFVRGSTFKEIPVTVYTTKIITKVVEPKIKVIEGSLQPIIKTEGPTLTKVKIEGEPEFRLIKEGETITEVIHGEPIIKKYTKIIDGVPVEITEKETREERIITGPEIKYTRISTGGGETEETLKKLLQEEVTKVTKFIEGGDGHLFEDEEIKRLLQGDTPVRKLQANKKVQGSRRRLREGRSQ
Experiment: cell-based or functional assay
Write it as a number; the unit nM goes unstated.

Worked examples follow.
>>> quantitative_readout("NB0828 (antibody, V domains shown) VH: QVQLVQSGAEVKKPGASVKVSCKASGYTFTSYGISWVRQAPGQGLEWMGWISAYNGNTNYAQKLQGRVTMTTDTSTSTAYMELRSLRSDDTAVYYCARDMLVVPFDYWGQGTLVTVSS VL: QSVLTQSSSASGTPGQTVTVSCSGSSSDIGSNRVNWYQQLPGTAPKLLIYSNDQRPSGVPDRFSGSKSGTSASLAISGLQSADEADYYCAAWDDSLSTYVFGSGTKVTVL")
24.3
>>> quantitative_readout("NB1010 (N55Q) (antibody, V domains shown, Variant of NB0828 (IgG4PAA parent); the isotype of the variant is not restated) VH: QVQLVQSGAEVKKPGASVKVSCKASGYTFTSYGISWVRQAPGQGLEWMGWISAYQGNTNYAQKLQGRVTMTTDTSTSTAYMELRSLRSDDTAVYYCARDMLVVPFDYWGQGTLVTVSS VL: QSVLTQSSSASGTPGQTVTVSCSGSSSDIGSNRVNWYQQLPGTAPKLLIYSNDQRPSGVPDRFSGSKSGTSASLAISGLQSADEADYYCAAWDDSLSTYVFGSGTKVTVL")
7.97

Endpoint output: CAA IC50 of NB1011 (N55T) (antibody, V domains shown, Variant of NB0828 (IgG4PAA parent); the isotype of the variant is not restated) VH: QVQLVQSGAEVKKPGASVKVSCKASGYTFTSYGISWVRQAPGQGLEWMGWISAYTGNTNYAQKLQGRVTMTTDTSTSTAYMELRSLRSDDTAVYYCARDMLVVPFDYWGQGTLVTVSS VL: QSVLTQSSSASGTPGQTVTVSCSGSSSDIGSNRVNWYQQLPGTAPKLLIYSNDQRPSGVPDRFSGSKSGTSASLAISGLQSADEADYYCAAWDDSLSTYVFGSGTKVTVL . Value? 15
